experiment: Pharmacokinetics / bioavailability in rats; assay type: in vivo; conditions: rat, in vivo, po, 8.57 mg/kg, rats; phosphate salt p.o., supension (water containing 0.5% HPMC) [8.57 mg/kg]
Where a name gives a salt, the structure may show the parent alone.
reportedProperty: Tmax (h)
Please reply with the bare figure in h and do not write the unit itself.

Exercise: Determine from records and report Tmax for CCN1CCN(c2ccc(Nc3cc(N(C)C(=O)Nc4c(Cl)c(OC)cc(OC)c4Cl)ncn3)cc2)CC1 [Phosphate salt (form A)]
Solution: 3

---

assay: Pharmacokinetics / bioavailability in rats; type: in vivo; conditions: rat, in vivo, po, 8.57 mg/kg, rats; phosphate salt p.o., supension (water containing 0.5% HPMC) [8.57 mg/kg]; read-out: Cmax [μmol/L ± SE]
Structures can show the parent of a compound that is named as a salt.
reportedProperty: Cmax (µmol/L)
Write it as a number; the unit µmol/L goes unstated.

Exercise: Answer with the recorded Cmax of CCN1CCN(c2ccc(Nc3cc(N(C)C(=O)Nc4c(Cl)c(OC)cc(OC)c4Cl)ncn3)cc2)CC1 [Phosphate salt (form A)] only.
Solution: 0.15

---

Experiment: Pharmacokinetics / bioavailability in rats
Format: in vivo
Details: rat, in vivo, iv, 5 mg/kg, rats; i.v. [5 mg/kg]
Procedure: The higher water solubility of the phosphate salt compared to the free base (and other acid salts, as described above) led to the development of a solution formulation (or composition), which would not be feasible with the free base due to solubility restrictions. For this experiment, the phosphate salt was prepared as follows. In a glass vial, 10.7 mg of the free base was dissolved in 4 ml THF. Phosphoric acid (1.76 ml) in acetone (0.01M) was added. […]
reportedProperty: AUC(0-inf) (µM·h)
Answer with a number only, understood to be in µM·h.

Exercise: Quickly give me recorded AUC(0-inf) for CCN1CCN(c2ccc(Nc3cc(N(C)C(=O)Nc4c(Cl)c(OC)cc(OC)c4Cl)ncn3)cc2)CC1 [Free Base]
Solution: 2.47

---

assay: Pharmacokinetics / bioavailability in rats; type: in vivo; conditions: rat, in vivo, po, 10 mg/kg, rats; p.o., colloidal solution (water, ethanol and cremophor EL) [10 mg/kg]; read-out: Clast [μmol/L ± SE]
reportedProperty: concentration at 24 h (µmol/L)
Express the result in µmol/L but write the number alone.

Exercise: Supply reported concentration at 24 h belonging to this compound: CCN1CCN(c2ccc(Nc3cc(N(C)C(=O)Nc4c(Cl)c(OC)cc(OC)c4Cl)ncn3)cc2)CC1 [Free Base]
Solution: 0.01

---

assay: Pharmacokinetics / bioavailability in rats; assay type: in vivo; details: rat, in vivo, iv; rats; i.v. [5 mg/kg]; read-out: Vss
reportedProperty: Vd (L/kg)
Just the number in L/kg, nothing appended.

Exercise: Please list Vd recorded for the compound CCN1CCN(c2ccc(Nc3cc(N(C)C(=O)Nc4c(Cl)c(OC)cc(OC)c4Cl)ncn3)cc2)CC1 [Free Base]
Solution: 9.6

---

assay: Pharmacokinetics / bioavailability in rats; format: in vivo; conditions: rat, in vivo, po, 8.57 mg/kg, rats; phosphate salt p.o., supension (water containing 0.5% HPMC) [8.57 mg/kg]; read-out: Clast [μmol/L ± SE]
Counter-ions that a name gives are not always drawn.
reportedProperty: concentration at 8 h (µmol/L)
Record the value in µmol/L, omitting the unit from your answer.

Exercise: Report concentration at 8 h, nothing else, for this molecule: CCN1CCN(c2ccc(Nc3cc(N(C)C(=O)Nc4c(Cl)c(OC)cc(OC)c4Cl)ncn3)cc2)CC1 [Phosphate salt (form A)]
Solution: 0.062

---

test: Pharmacokinetics / bioavailability in rats; type: in vivo; settings: rat, in vivo, po, 8.57 mg/kg, rats; phosphate salt p.o., supension (water containing 0.5% HPMC) [8.57 mg/kg]; read-out: t1/2 terminal elimination (converted)
Structures can show the parent of a compound that is named as a salt.
reportedProperty: half-life (h)
Respond numerically; units are h and should not be typed.

Exercise: State, in one line, measured half-life of CCN1CCN(c2ccc(Nc3cc(N(C)C(=O)Nc4c(Cl)c(OC)cc(OC)c4Cl)ncn3)cc2)CC1 [Phosphate salt (form A)]
Solution: 4.4

---

experiment: Pharmacokinetics / bioavailability in rats; format: in vivo; settings: rat, in vivo, po, 10 mg/kg, pH 4.7, rats; p.o., solution (PEG300/acetate buffer pH 4.7 1:1) [10 mg/kg]; read-out: Clast [μmol/L ± SE]
Counter-ions that a name gives are not always drawn.
reportedProperty: concentration at 8 h (µmol/L)
Give the value, in units of µmol/L, as a plain number.

Exercise: Supply reported concentration at 8 h belonging to this compound: CCN1CCN(c2ccc(Nc3cc(N(C)C(=O)Nc4c(Cl)c(OC)cc(OC)c4Cl)ncn3)cc2)CC1 [Phosphate salt (form A)]
Solution: 0.148

---

assay: Pharmacokinetics / bioavailability in rats; type: in vivo; details: rat, in vivo, po, 8.57 mg/kg, rats; free base p.o., suspension (water containing 0.5% HPMC) [8.57 mg/kg]; read-out: Clast [μmol/L ± SE]
reportedProperty: concentration at 8 h (µmol/L)
Quick note: give the figure in µmol/L, leave out the unit.

Exercise: Please list concentration at 8 h recorded for the molecule CCN1CCN(c2ccc(Nc3cc(N(C)C(=O)Nc4c(Cl)c(OC)cc(OC)c4Cl)ncn3)cc2)CC1 [Free Base]
Solution: 0.077

---

assay: Pharmacokinetics / bioavailability in rats; format: in vivo; conditions: rat, in vivo, po, 10 mg/kg, rats; p.o., colloidal solution (water, ethanol and cremophor EL) [10 mg/kg]; read-out: Cmax [μmol/L ± SE]
reportedProperty: Cmax

Exercise: Give Cmax for CCN1CCN(c2ccc(Nc3cc(N(C)C(=O)Nc4c(Cl)c(OC)cc(OC)c4Cl)ncn3)cc2)CC1 [Free Base]
Solution: 0.154 µmol/L

---

Test: Pharmacokinetics / bioavailability in rats
Assay type: in vivo
Conditions: rat, in vivo, iv, 5 mg/kg, rats; i.v. [5 mg/kg]; read-out: t1/2 terminal elimination (converted)
Method: The higher water solubility of the phosphate salt compared to the free base (and other acid salts, as described above) led to the development of a solution formulation (or composition), which would not be feasible with the free base due to solubility restrictions. For this experiment, the phosphate salt was prepared as follows. In a glass vial, 10.7 mg of the free base was dissolved in 4 ml THF. Phosphoric acid (1.76 ml) in acetone (0.01M) was added. […]
reportedProperty: half-life
Entry format: amount then unit.

Exercise: Give recorded half-life. CCN1CCN(c2ccc(Nc3cc(N(C)C(=O)Nc4c(Cl)c(OC)cc(OC)c4Cl)ncn3)cc2)CC1 [Free Base]
Solution: 4.5 h

---

assay: Pharmacokinetics / bioavailability in rats; assay type: in vivo; conditions: rat, in vivo, po, 10 mg/kg, pH 4.7, rats; p.o., solution (PEG300/acetate buffer pH 4.7 1:1) [10 mg/kg]
Structures can show the parent of a compound that is named as a salt.
reportedProperty: Tmax (h)
Write it as a number; the unit h goes unstated.

Exercise: Give recorded Tmax. CCN1CCN(c2ccc(Nc3cc(N(C)C(=O)Nc4c(Cl)c(OC)cc(OC)c4Cl)ncn3)cc2)CC1 [Phosphate salt (form A)]
Solution: 4

---

assay: Pharmacokinetics / bioavailability in rats; assay type: in vivo; settings: rat, in vivo, iv, 5 mg/kg, rats; i.v. [5 mg/kg]; read-out: Clast [μmol/L ± SE]
reportedProperty: concentration at 24 h (µmol/L)
Express your answer in µmol/L, writing the number without its unit.

Exercise: Look up and state reported concentration at 24 h for CCN1CCN(c2ccc(Nc3cc(N(C)C(=O)Nc4c(Cl)c(OC)cc(OC)c4Cl)ncn3)cc2)CC1 [Free Base]
Solution: 0.003

---

assay: Pharmacokinetics / bioavailability in rats; assay type: in vivo; conditions: rat, in vivo, po, 8.57 mg/kg, rats; free base p.o., suspension (water containing 0.5% HPMC) [8.57 mg/kg]
reportedProperty: Tmax (h)
Hi! Could you send only the number? It should be in h, unit omitted.

Exercise: // Input: CCN1CCN(c2ccc(Nc3cc(N(C)C(=O)Nc4c(Cl)c(OC)cc(OC)c4Cl)ncn3)cc2)CC1 [Free Base] . Output its Tmax only.
Solution: 2

Data origin: patent US9067896B2
